Exercise: for every item that follows, state its recorded AC50.
Target: Gamma-aminobutyric acid receptor subunit alpha-1 (Rattus norvegicus); note: assay procedure not described here
Sequence (P62813 whole entry): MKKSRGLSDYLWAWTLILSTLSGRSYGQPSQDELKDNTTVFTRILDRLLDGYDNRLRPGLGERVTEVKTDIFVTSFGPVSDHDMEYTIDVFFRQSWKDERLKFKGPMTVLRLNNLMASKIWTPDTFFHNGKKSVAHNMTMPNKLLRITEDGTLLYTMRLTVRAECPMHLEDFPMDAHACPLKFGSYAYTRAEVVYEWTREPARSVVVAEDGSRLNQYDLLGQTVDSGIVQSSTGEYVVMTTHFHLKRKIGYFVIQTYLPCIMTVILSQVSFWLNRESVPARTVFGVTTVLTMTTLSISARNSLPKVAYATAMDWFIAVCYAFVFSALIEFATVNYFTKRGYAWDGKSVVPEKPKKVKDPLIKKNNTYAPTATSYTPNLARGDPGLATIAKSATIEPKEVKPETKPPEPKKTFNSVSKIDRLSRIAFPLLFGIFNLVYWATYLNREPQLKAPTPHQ
Assay type: functional

Nc1nc(NC2CC2)c2ncn([C@H]3C=C[C@@H](CO)C3)c2n1; > 30 µM
C1CCC(C(CC2CCCCN2)C2CCCCC2)CC1 (centres undefined); > 30 µM
O=C(O[C@H]1C[C@H]2CC[C@@H](C1)[N+]21CCCC1)C(O)(c1ccccc1)c1ccccc1; > 30 µM
COc1cc2nc(N(C)CCCNC(=O)C3CCCO3)nc(N)c2cc1OC (centres undefined); > 30 µM
CCCN(CCC)C(=O)C(CCC(=O)O)NC(=O)c1ccccc1 (centres undefined) [PROGLUMIDE]; > 10 µM
C[C@H](N)[C@H](O)c1cccc(O)c1; > 10 µM
Cc1cccc(C(C)c2cnc[nH]2)c1C (centres undefined); > 10 µM
CCCCCCOc1ccccc1C(N)=O [EXALAMIDE]; > 30 µM
CC=CC(=O)N(CC)c1ccccc1C; > 10 µM
CCCC1O[C@@H]2C[C@H]3[C@@H]4CCC5=CC(=O)C=C[C@]5(C)[C@H]4[C@@H](O)C[C@]3(C)[C@]2(C(=O)CO)O1 (some centres undefined) [BUDESONIDE]; > 10 µM

Please supply AC50 for each of the following items, keeping them in order.
1. Nc1nc(/C(=C/CC(=O)O)C(=O)N[C@@H]2C(=O)N3C(C(=O)O)=CCS[C@H]23)cs1
2. O=C(O)[C@H](CC(=O)N1C[C@H]2CCCC[C@H]2C1)Cc1ccccc1 [MITIGLINIDE]
3. Clc1ccc(CCCOCCCN2CCCCC2)cc1
4. O=C(Cc1ccc(-c2ccccc2)cc1)Nc1ccccn1 [DIFENPIRAMIDE]
5. COc1ccccc1N1CCN(CCCNc2cc(=O)n(C)c(=O)n2C)CC1
6. CCCC(=O)O[C@]1(C(=O)CO)CC[C@H]2[C@@H]3CCC4=CC(=O)CC[C@]4(C)[C@H]3[C@@H](O)C[C@@]21C [HYDROCORTISONE BUTYRATE]
7. NCC(CC(=O)O)c1ccc(Cl)cc1 (centres undefined)

> 30 µM
> 10 µM
> 30 µM
> 30 µM
> 30 µM
> 10 µM
> 30 µM

Please supply AC50 for each of the following items, keeping them in order.
1. Cc1ccc(-c2cc(C(F)(F)F)nn2-c2ccc(S(N)(=O)=O)cc2)cc1
2. Cn1c(=O)c2c(ncn2CC2OCCO2)n(C)c1=O

["> 10 µM", "> 30 µM"]

* * *

Exercise: for every item that follows, state its recorded AC50.
Target: Motilin receptor (Homo sapiens); note: assay procedure not described here
Sequence (O43193 whole entry): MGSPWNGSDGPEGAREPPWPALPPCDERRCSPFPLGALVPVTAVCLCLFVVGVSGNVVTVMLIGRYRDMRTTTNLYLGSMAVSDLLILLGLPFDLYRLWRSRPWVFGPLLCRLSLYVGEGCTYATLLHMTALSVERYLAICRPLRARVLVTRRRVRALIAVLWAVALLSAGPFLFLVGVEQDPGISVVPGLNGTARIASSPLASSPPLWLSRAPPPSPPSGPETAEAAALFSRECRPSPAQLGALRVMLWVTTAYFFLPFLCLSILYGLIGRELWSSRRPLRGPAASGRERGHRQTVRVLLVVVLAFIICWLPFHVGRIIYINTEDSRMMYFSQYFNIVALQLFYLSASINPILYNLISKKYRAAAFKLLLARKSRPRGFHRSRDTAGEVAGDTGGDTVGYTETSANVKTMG

Would you please look over these solved cases?
N[C@@H]1[C@H]2CN(c3nc4c(cc3F)c(=O)c(C(=O)O)cn4-c3ccc(F)cc3F)C[C@@H]12; > 30 µM
CNC(=O)c1ccccc1Sc1ccc2c(/C=C/c3ccccn3)n[nH]c2c1; > 30 µM
CC(=O)O[C@H]1CC[C@@]2(C)C(=CC[C@@H]3[C@@H]2CC[C@]2(C)C(c4cccnc4)=CC[C@@H]32)C1 [ABIRATERONE ACETATE]; > 30 µM

For `CCCc1nc(C(C)(C)O)c(C(=O)OCc2oc(=O)oc2C)n1Cc1ccc(-c2ccccc2-c2nnn[nH]2)cc1` , what is its reported AC50?
> 10 µM

* * *

Exercise: for every item that follows, state its recorded AC50.
Target: UniProt:P21397
Sequence (P21397 whole entry): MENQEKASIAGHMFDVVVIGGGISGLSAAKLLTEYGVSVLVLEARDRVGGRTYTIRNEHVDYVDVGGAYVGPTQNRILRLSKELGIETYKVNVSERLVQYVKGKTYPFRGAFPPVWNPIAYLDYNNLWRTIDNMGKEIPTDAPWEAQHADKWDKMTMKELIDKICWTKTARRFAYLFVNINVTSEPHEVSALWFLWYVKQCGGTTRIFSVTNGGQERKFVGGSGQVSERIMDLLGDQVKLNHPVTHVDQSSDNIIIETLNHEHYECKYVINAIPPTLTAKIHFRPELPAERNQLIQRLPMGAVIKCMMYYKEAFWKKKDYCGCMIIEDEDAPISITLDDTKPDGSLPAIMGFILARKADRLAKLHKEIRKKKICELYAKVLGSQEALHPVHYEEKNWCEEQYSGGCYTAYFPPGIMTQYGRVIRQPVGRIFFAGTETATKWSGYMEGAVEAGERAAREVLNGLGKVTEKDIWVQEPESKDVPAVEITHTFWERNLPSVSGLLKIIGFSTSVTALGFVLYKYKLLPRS
Assay type: functional

Would you please look over these solved cases?
CC[C@@H]1C(=O)OC[C@@H]1Cc1cncn1C; > 10 µM
CNC(=O)c1ccccc1Sc1ccc2c(/C=C/c3ccccn3)n[nH]c2c1; > 30 µM
CN1C(C(=O)Nc2ccccn2)=C(O)c2sc(Cl)cc2S1(=O)=O; > 10 µM
CC[C@H]1OC(=O)[C@H](C)[C@@H](O[C@H]2C[C@@](C)(OC)[C@@H](O)[C@H](C)O2)[C@H](C)[C@@H](O[C@@H]2O[C@H](C)C[C@H](N(C)C)[C@H]2O)[C@](C)(O)C[C@@H](C)CN(C)[C@H](C)[C@@H](O)[C@]1(C)O; > 10 µM

Please supply AC50 for each of the following items, keeping them in order.
1. NC(=O)CN1CC(O)CC1=O (stereo not drawn)
2. Nc1ccn([C@H]2CC[C@@H](CO)O2)c(=O)n1
3. C/C(O)=C(\C#N)C(=O)Nc1ccc(C(F)(F)F)cc1 [TERIFLUNOMIDE]
4. CN(C)CCc1c[nH]c2ccc(C[C@H]3COC(=O)N3)cc12

1: > 30 µM; 2: > 10 µM; 3: 4.9 µM; 4: > 30 µM

* * *

Target: 3',5'-cyclic-AMP phosphodiesterase 4A (Homo sapiens); note: assay procedure not described here
Format: functional
OBSERVABLE: AC50

CO[C@H]1C[C@@H]2CC[C@@H](C)[C@@](O)(O2)C(=O)C(=O)N2CCCC[C@H]2C(=O)O[C@H]([C@H](C)C[C@@H]2CC[C@@H](O)[C@H](OC)C2)CC(=O)[C@H](C)/C=C(\C)[C@@H](O)[C@@H](OC)C(=O)[C@H](C)C[C@H](C)/C=C/C=C/C=C/1C [SIROLIMUS]; > 30 µM

Then there is this compound:
For CC(C)C[C@H]1C(=O)N2CCC[C@H]2[C@]2(O)O[C@](NC(=O)[C@@H]3C=C4c5cccc6[nH]c(Br)c(c56)C[C@H]4N(C)C3)(C(C)C)C(=O)N12 [BROMOCRIPTINE] , what is its reported AC50?
> 30 µM

* * *

Target: 3',5'-cyclic-AMP phosphodiesterase 4A (Homo sapiens, UniProt P27815); note: assay procedure not described here
Sequence (P27815 whole entry): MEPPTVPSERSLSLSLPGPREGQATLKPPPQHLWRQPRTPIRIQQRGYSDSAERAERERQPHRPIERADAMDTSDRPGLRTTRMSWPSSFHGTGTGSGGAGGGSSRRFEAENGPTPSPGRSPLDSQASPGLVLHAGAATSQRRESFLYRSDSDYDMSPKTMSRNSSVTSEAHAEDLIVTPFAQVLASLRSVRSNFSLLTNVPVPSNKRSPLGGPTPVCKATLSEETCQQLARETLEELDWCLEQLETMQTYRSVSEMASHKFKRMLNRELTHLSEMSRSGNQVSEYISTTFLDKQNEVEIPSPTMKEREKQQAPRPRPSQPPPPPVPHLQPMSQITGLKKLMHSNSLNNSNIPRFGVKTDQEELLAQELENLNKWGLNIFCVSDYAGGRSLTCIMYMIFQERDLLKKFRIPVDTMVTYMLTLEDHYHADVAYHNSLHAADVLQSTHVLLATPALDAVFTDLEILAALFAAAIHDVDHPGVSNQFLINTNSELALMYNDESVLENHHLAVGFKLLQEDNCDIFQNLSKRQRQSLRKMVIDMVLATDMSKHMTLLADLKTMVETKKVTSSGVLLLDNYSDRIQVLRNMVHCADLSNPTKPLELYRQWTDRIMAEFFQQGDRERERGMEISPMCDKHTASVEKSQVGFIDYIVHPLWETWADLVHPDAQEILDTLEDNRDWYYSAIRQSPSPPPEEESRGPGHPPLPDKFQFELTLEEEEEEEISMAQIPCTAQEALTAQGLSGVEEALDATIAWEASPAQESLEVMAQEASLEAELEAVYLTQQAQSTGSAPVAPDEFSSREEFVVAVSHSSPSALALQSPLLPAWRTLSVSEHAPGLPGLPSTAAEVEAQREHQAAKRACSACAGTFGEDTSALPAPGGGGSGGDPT
Format: functional
OBSERVABLE: AC50

O=c1[nH]c(=O)n(C2CCCO2)cc1F (centres undefined); > 30 µM
CC(=O)N[C@@H]1[C@@H](O)[C@H](O)[C@@H](CO)O[C@H]1O; > 30 µM
COCc1c(C(C)C)nc(C(C)C)c(/C=C/[C@@H](O)C[C@@H](O)CC(=O)O)c1-c1ccc(F)cc1; 21.5 µM

Then there is this compound:
For CC(=O)OCC(=O)[C@@]1(O)CC[C@H]2[C@@H]3CCC4=CC(=O)C=C[C@]4(C)[C@@]3(Cl)[C@@H](Cl)C[C@@]21C [DICHLORISONE ACETATE] , what is its reported AC50?
> 30 µM

* * *

Biological target: Prostaglandin G/H synthase 1 (Rattus norvegicus); note: assay procedure not described here
Sequence (Q63921 whole entry): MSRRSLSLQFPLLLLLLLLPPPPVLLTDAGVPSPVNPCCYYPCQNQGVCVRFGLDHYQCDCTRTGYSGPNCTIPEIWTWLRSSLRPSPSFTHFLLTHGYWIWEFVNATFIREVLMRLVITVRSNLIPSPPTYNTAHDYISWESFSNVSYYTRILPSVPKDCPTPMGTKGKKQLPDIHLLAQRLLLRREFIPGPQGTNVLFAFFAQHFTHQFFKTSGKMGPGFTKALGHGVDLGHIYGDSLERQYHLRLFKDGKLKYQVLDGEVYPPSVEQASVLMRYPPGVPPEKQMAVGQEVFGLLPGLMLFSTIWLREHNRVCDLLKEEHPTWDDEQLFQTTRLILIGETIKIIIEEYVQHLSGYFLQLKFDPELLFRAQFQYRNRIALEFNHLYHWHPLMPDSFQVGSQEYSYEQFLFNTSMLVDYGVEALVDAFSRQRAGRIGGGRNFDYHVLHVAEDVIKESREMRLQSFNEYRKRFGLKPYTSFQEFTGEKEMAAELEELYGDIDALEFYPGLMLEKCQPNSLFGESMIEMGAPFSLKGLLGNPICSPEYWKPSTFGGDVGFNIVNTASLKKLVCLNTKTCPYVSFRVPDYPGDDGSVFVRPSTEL
Assay type: functional
OBSERVABLE: AC50

Would you please look over these solved cases?
COc1cc2nc(N3CCN(C(=O)c4ccco4)CC3)nc(N)c2cc1OC; > 30 µM
CCOC(=O)[C@H](CCc1ccccc1)N[C@@H](C)C(=O)N1C(=O)N(C)C[C@H]1C(=O)O; 12 µM
CCN1CCN(C(=O)N[C@@H](C(=O)N[C@@H]2C(=O)N3C(C(=O)O)=C(CSc4nnnn4C)CS[C@H]23)c2ccc(O)cc2)C(=O)C1=O; > 30 µM

Please supply AC50 for each of the following items, keeping them in order.
1. CN1C(C(=O)Nc2ccccn2)=C(O)c2sc(Cl)cc2S1(=O)=O
2. c1ccc([C@H]2CN3CCSC3=N2)cc1
3. O=[N+]([O-])O[C@@H]1CO[C@H]2[C@@H]1OC[C@@H]2O [ISOSORBIDE MONONITRATE]
4. O=C(O)[C@H](CC(=O)N1C[C@H]2CCCC[C@H]2C1)Cc1ccccc1 [MITIGLINIDE]
5. O=C(OCC(O)CO)c1ccccc1Nc1ccnc2cc(Cl)ccc12 (stereo not given)
6. OC(CNCC(O)C1CCc2cc(F)ccc2O1)C1CCc2cc(F)ccc2O1 (stereo not given)
7. NCC(=O)CCC(=O)O
8. NS(=O)(=O)Cc1noc2ccccc12 [ZONISAMIDE]

1: 22 µM; 2: > 30 µM; 3: > 30 µM; 4: > 10 µM; 5: > 30 µM; 6: > 30 µM; 7: > 30 µM; 8: > 10 µM

Please supply AC50 for each of the following items, keeping them in order.
1. Clc1ccc(C(c2ccccc2Cl)C(Cl)Cl)cc1 (stereo not given)
2. C/C(O)=C(\C#N)C(=O)Nc1ccc(C(F)(F)F)cc1 [TERIFLUNOMIDE]
3. CCCSc1ccc2nc(NC(=O)OC)[nH]c2c1
4. COc1ccccc1OCC(O)CN1CCN(CC(=O)Nc2c(C)cccc2C)CC1 (stereo not given)
5. CCCCCCOc1ccccc1C(N)=O [EXALAMIDE]
6. C[C@](N)(Cc1ccc(O)c(O)c1)C(=O)O
7. Cc1c(OCC(F)(F)F)ccnc1C[S+]([O-])c1nc2ccccc2[nH]1 (stereo not given)
8. CCCCN1C[C@H](O)[C@@H](O)[C@H](O)[C@H]1CO

["> 10 µM", "> 30 µM", "> 30 µM", "> 30 µM", "> 30 µM", "> 30 µM", "> 30 µM", "> 30 µM"]

Please supply AC50 for each of the following items, keeping them in order.
1. CC(C)(C)NCC(O)COc1cccc2c1CCC(=O)N2 (stereo not given)
2. COc1ccccc1N1CCN(CC(O)COc2cccc3ccccc23)CC1 (stereo not given)
3. Nc1nc(N)nc(-c2cc(Cl)ccc2Cl)n1

1. > 10 µM
2. > 30 µM
3. > 30 µM

Please supply AC50 for each of the following items, keeping them in order.
1. Cc1c(C(=O)NN2CCCCC2)nn(-c2ccc(Cl)cc2Cl)c1-c1ccc(Cl)cc1
2. NCC(CC(=O)O)c1ccc(Cl)cc1 (stereo not given)
3. Cc1ccc(-n2nccn2)c(C(=O)N2CCN(c3nc4cc(Cl)ccc4o3)CC[C@H]2C)c1
4. CC1(C)NC(=O)N(c2ccc([N+](=O)[O-])c(C(F)(F)F)c2)C1=O [NILUTAMIDE]

> 30 µM
> 30 µM
> 30 µM
> 30 µM

Please supply AC50 for each of the following items, keeping them in order.
1. CC(C(=O)O)c1ccc(N2Cc3ccccc3C2=O)cc1 (stereo not given)
2. CC(C)OC(=O)CCC/C=C\C[C@@H]1[C@@H](CC[C@@H](O)CCc2ccccc2)[C@H](O)C[C@@H]1O
3. CCOC(=O)OC(C)OC1=C(C(=O)Nc2ccccn2)N(C)S(=O)(=O)c2ccccc21 (stereo not given)
4. CC[C@H]1CN2CCc3cc(OC)c(OC)cc3[C@@H]2C[C@@H]1C[C@H]1NCCc2cc(OC)c(OC)cc21
5. COc1ccccc1OCCNCC(O)c1ccc(C)c(S(N)(=O)=O)c1 (stereo not given)
6. CCc1c(Cl)c(O)c(Cl)c(O)c1C(=O)O[C@H]1[C@H](O)[C@H](OC)[C@H](OC/C2=C\C=C\C[C@H](O)/C(C)=C/[C@H](CC)[C@@H](O[C@@H]3OC(C)(C)[C@@H](OC(=O)C(C)C)[C@H](O)[C@@H]3O)/C(C)=C/C(C)=C/C[C@@H]([C@@H](C)O)OC2=O)O[C@@H]1C
7. CC(C)Cn1cnc2c(N)nc3ccccc3c21
8. O=C(O)C1=C(CSc2nnnn2CS(=O)(=O)O)CS[C@@H]2[C@H](NC(=O)[C@H](O)c3ccccc3)C(=O)N12

0.0694 µM
> 30 µM
> 30 µM
> 30 µM
> 30 µM
> 30 µM
> 30 µM
> 30 µM

For `CC[C@@H]1C(=O)OC[C@@H]1Cc1cncn1C` , what is its reported AC50?
> 30 µM
